Data provenance: patent US20200071424A1

Biological target: T1, mouse EL (mouse, UniProt Q9WVG5 21-500)
T1 sequence (looked up): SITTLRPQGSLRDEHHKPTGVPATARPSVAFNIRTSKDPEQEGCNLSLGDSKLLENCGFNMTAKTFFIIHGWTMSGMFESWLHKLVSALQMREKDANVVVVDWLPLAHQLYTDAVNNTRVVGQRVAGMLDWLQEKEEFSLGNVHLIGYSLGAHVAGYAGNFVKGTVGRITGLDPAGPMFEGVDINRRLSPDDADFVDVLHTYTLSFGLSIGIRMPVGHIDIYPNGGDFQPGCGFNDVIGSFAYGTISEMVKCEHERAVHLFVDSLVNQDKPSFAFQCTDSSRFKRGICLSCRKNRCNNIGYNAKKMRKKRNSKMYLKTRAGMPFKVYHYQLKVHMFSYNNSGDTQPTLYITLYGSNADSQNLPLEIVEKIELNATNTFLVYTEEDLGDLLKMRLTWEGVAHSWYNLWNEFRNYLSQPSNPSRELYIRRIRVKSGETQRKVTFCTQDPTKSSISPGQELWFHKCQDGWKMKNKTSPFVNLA
Test: cell-based or functional assay
Entries and their measured Neutralizing activity IC50 follow.
Give the number; nM is assumed, so skip it.

{"columns": ["Binder", "Unit", "Neutralizing activity IC50"],
 "data": [
  ["h16F6-S2 (antibody, V domains shown) VH: QVQLVQSGAEVKKPGASVKVSCKASGYTFTTYWIAWVRQAPGQGLEWMGEILPGSAKTKYNKKFKGRVTMTRDTSTSTVYMELSSLRSEDTAVYYCAVYDYGADYWGQGTTVTVSS VL: DIQMTQSPSSLSASVGDRVTITCKASQDVYTAVAWYQQKPGKSPKLLIYSASYRFTGVPSRFSGSGAGTDFTLTISSLQPEDFATYYCQQHYSIPRTFGGGTKVEIK", "nM", 3]
]}

// Neutralizing activity IC50 lookup, binder = h16F6-S4 (antibody, V domains shown) VH: QVQLVQSGAEVKKPGASVKVSCKASGYTFTTYWIAWVRQAPGQGLEWMGEILPGSAKTKYNKKFKGRVTMTRDTSTSTVYMELSSLRSEDTAVYYCAVYDYGADYWGQGTTVTVSS VL: DIQMTQSPSSLSASVGDRVTITCKASQDVYTAVAWYQQKPGKSPKLLIYSASYRFTGVPSRFTGSGAGTDFTFTISSLQPEDFATYYCQQHYSIPRTFGGGTKVEIK , result: 2

// Neutralizing activity IC50 lookup, binder = h16F6-S5 (antibody, V domains shown) VH: QVQLVQSGAEVKKPGASVKVSCKASGYTFTTYWIAWVRQAPGQGLEWMGEILPGSAKTKYNKKFKGRVTMTRDTSTSTVYMELSSLRSEDTAVYYCAVYDYGADYWGQGTTVTVSS VL: DIQMTQSPSSLSASVGDRVSITCKASQDVYTAVAWYQQKPGKSPKLLIYSASYRFTGVPSRFTGSGAGTDFTFTISSLQPEDFATYYCQQHYSIPRTFGGGTKVEIK , result: 2.1

// Neutralizing activity IC50 lookup, binder = h16F6-S1 (antibody, V domains shown, humanized) VH: QVQLVQSGAEVKKPGASVKVSCKASGYTFTTYWIAWVRQAPGQGLEWMGEILPGSAKTKYNKKFKGRVTMTRDTSTSTVYMELSSLRSEDTAVYYCAVYDYGADYWGQGTTVTVSS VL: DIQMTQSPSSLSASVGDRVTITCKASQDVYTAVAWYQQKPGKSPKLLIYSASYRFTGVPSRFSGSGSGTDFTLTISSLQPEDFATYYCQQHYSIPRTFGGGTKVEIK , result: 3.1
